System: UACC-62
Assay: NCI tumour cell line growth inhibition, 48 h
Active and inactive are the calls of the source. Rule as the data show it: active = GI50 up to about 1.1 µM and inactive = higher.
The molecules listed here are annotated with their GI50.
metric: GI50

molecule	metric	result-value
CSC(=S)NN=C1CCCC1.CSC(=S)NN=C1CCCC1.[Zn+2]	GI50	28.2 µM (inactive)
COc1ccc(CC2c3cc(OC)c(OC)c(OC)c3CC[N+]2(C)C)cc1Oc1ccc(CC2c3cc4c(c(OC)c3CC[N+]2(C)C)OCO4)cc1 (configuration not stated)	GI50	> 100 µM (inactive)
NNC(=O)c1ccccc1Nc1ccccc1C(=O)NN	GI50	> 100 µM (inactive)
O=C1CC23CC(=O)CC2(C1)c1ccccc1C3=O (configuration not stated)	GI50	> 100 µM (inactive)
CC(=O)NC1(C)CCC(C(C)(C)NC(C)=O)CC1 (configuration not stated)	GI50	> 100 µM (inactive)
Cc1cc(=O)oc2c(CNC(CC(C)C)C(=O)O)c(O)ccc12 (configuration not stated)	GI50	> 100 µM (inactive)
C/C=C/c1cc2c(c(=O)o1)C(=O)[C@@H](O)[C@H](C)O2	GI50	17.5 µM (inactive)
N#CCC(=O)N/N=C1/C(=O)N(c2ccc(Cl)cc2)C(=O)C(=O)C1c1nc2ccccc2s1 (configuration not stated)	GI50	60.3 µM (inactive)
COc1ccc(/C=N/n2cnc3[nH]c(C)c(Cc4ccccc4)c3c2=N)cc1	GI50	> 100 µM (inactive)
CC(C)(C)C1(O)Cc2ccccc2C(=O)O1 (configuration not stated)	GI50	> 100 µM (inactive)
COc1cccc(C2CC(C)=Nc3c(ccc4c3C(=O)c3ccccc3C4=O)N2)c1O (configuration not stated)	GI50	> 100 µM (inactive)
NC(C(=O)O)C(O)c1c[nH]cn1 (configuration not stated)	GI50	> 100 µM (inactive)
CCOC(=O)c1c(C)n(Cc2ccc(Cl)cc2Cl)c2c1cc(O)c1[nH]c3c(c12)CCCC3	GI50	22.5 µM (inactive)
O=C(/C(=C/c1ccc(O)cc1)c1ccccc1)c1ccccc1	GI50	14.1 µM (inactive)
COc1cc(OC)c2c(c1)OC(c1ccccc1)CC2=O (configuration not stated)	GI50	> 10 µM (inactive)
CNS(=O)(=O)NNS(=O)(=O)c1ccc(Cl)cc1	GI50	> 100 µM (inactive)
CCOC(=O)Nn1c(C)cc(C(=O)OC)c1C	GI50	> 100 µM (inactive)
COc1cc(/C=C/c2ccc(C)cc2)cc(OC)c1OC	GI50	3.44 µM (inactive)
COc1cc(Nc2cnc3cc(F)c(F)cc3n2)cc(OC)c1	GI50	18.2 µM (inactive)
CC(NNC(=O)c1cc[n+]([BH2-]C#N)cc1)c1ccccc1 (configuration not stated)	GI50	> 100 µM (inactive)
CCC1(OC(=O)CNC)C(=O)OCc2c1cc1n(c2=O)Cc2cc3ccccc3nc2-1 (configuration not stated)	GI50	< 0.01 µM (active)
COc1ccc(Nc2nc3ccccc3nc2-c2cccs2)cc1	GI50	> 100 µM (inactive)

----------
System: NCI-H522
Assay: NCI tumour cell line growth inhibition, 48 h
The source made the active and inactive calls. Cut-off read from the data, not from the text of the source: active = GI50 up to about 1.1 µM and inactive = higher. Where a SMILES comes first, the peptide text is derived from it. The star is where a group is joined. Cbz = O=C(OCc1ccccc1)*; Bn = c1ccc(C*)cc1
GI50 for assorted compounds
metric: GI50

compound	experimental-system	result-value
O=C(O)CSc1nnc(COc2ccc(Cl)cc2)n1-c1ccccc1	NCI-H522	> 100 µM (inactive)
CSC1=C(C(=O)N(COCC[Si](C)(C)C)c2ccccc2Br)CCC(C(C)(C)C)C1 (stereo unspecified)	NCI-H522	7.78 µM (inactive)
Cc1ccc(Nc2nc(C)c(C(=O)CC(=O)C(=O)Nc3ccc(Cl)cc3)s2)cc1	NCI-H522	> 100 µM (inactive)
CC(C)NCC(O)c1ccc(O)c2ncccc12 (stereo unspecified)	NCI-H522	47.2 µM (inactive)
Cc1c(CCl)c(=O)oc2c(C)c3occ(CCl)c(=O)c3cc12	NCI-H522	13.4 µM (inactive)
CC(C)(C)C1=CC(C)(n2[nH]c(=O)n(-c3ccccc3)c2=O)C=C(C(C)(C)C)C1=O	NCI-H522	> 100 µM (inactive)
Cc1ccc(C2(c3ccc(F)cc3)OC(=O)c3ccccc32)c(O)c1 (stereo unspecified)	NCI-H522	14.5 µM (inactive)
O=C(COc1ccc(Cl)cc1)N1N=C(c2ccc([N+](=O)[O-])o2)CC1(O)c1ccccc1 (stereo unspecified)	NCI-H522	15.5 µM (inactive)
C[C@]12CC[C@H]3[C@@H](CCC4=CC(=O)C=C[C@@]43OC(=O)C(F)(F)F)[C@@H]1CCC2=O	NCI-H522	> 84.1 µM (inactive)
CCNC1=C(NC(=O)c2ccc(OC)cc2)C(=O)c2ccccc2C1=O	NCI-H522	30.7 µM (inactive)
N=C(N)NC(=N)Nc1ccc(S(N)(=O)=O)cc1	NCI-H522	> 100 µM (inactive)
COP(=O)(OC)/C(=C/c1c[nH]c2ccccc12)C(=O)O	NCI-H522	> 100 µM (inactive)
CC(=O)OC1[C@H]2c3cc4c(cc3CN3CCC(=C[C@@H]1O)C23)OCO4 (stereo partly specified)	NCI-H522	> 100 µM (inactive)
COc1cccc(C2SC(=N)Nc3c2c(C)nn3C(=O)Cc2ccccc2)c1 (stereo unspecified)	NCI-H522	> 100 µM (inactive)
COC(=O)C(Cc1ccc(O)cc1)NC(=O)C(COCc1ccccc1)NC(=O)OCc1ccccc1 (stereo unspecified) (Cbz-Ser(Bn)-Tyr-OMe; configuration not given here)	NCI-H522	22.5 µM (inactive)
O=C1C(=CNc2ccc([N+](=O)[O-])cc2)C(=O)N(c2ccccc2)C(=O)N1c1ccccc1	NCI-H522	> 100 µM (inactive)
O=C1c2ccccc2CC12Cc1cc3c(cc1C2=O)CCC3 (stereo unspecified)	NCI-H522	> 100 µM (inactive)
N#CCC(=O)N/N=C1/C(=O)N(c2ccc(Cl)cc2)C(=O)C(=O)C1c1nc2ccccc2s1 (stereo unspecified)	NCI-H522	46.3 µM (inactive)
C=CCOCC1C2CCC3(OCCO3)C21 (stereo unspecified)	NCI-H522	> 100 µM (inactive)
CN1CCc2c(sc3ncn(N)c(=N)c23)C1	NCI-H522	45.7 µM (inactive)
CCOC(=O)C(=O)Nc1ccccc1CC	NCI-H522	> 100 µM (inactive)
